Below: a set of entries, each annotated with reported IC50.
TESTED ON: TXK (Homo sapiens (Human))
Sequence (P42681 whole entry, species assumed): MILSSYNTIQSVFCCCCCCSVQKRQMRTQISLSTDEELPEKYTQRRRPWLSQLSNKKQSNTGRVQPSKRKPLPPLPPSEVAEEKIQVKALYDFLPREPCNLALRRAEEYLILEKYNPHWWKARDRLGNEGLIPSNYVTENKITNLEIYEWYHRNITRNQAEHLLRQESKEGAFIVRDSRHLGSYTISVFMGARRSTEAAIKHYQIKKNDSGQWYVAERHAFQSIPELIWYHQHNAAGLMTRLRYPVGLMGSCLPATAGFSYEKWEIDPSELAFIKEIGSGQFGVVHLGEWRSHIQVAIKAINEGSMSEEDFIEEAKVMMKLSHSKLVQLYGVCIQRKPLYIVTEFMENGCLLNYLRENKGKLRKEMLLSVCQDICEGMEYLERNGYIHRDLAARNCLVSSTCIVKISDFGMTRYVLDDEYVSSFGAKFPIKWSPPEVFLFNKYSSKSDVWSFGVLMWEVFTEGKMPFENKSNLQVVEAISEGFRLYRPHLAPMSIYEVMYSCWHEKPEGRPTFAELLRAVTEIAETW
TEST DETAILS: IC50 against TXK
Assay type: biochemical

C=CC(=O)N1CCCN(C(=O)c2cc(Sc3cnc(NC(=O)C4CC4)s3)c(C)cc2C(F)(F)F)C[C@H]1C    1000 to 10000 nM
C=CC(=O)N1CCN(C(=O)c2cc(Sc3cnc(NC(=O)c4cnn(C)c4)s3)c(C)cc2C)CC1    10 to 100 nM
C=CC(=O)N1CCN(C(=O)c2cc(C(C)c3cnc(Nc4ccccn4)s3)c(C)cc2OC)CC1 (stereo not shown)    < 10 nM

# ---- query molecule ----
Give me measured IC50, please, for this molecule: C=CC(=O)N1CCN(C(=O)c2cc(Sc3cnc(NC(=O)C4CC4)s3)c(C)cc2C)C[C@H]1C#N < 10 nM
